Kindly supply the reported IC50 values for the records listed here.
System: PRK
Assay: Concentration required to inhibit incorporation of [Me-3H]-dThd into DNA of primary rabbit kidney (PRK) cells by 50%
Type: functional, cell-based
Settings: Oryctolagus cuniculus
One number for each entry, in µg/mL.

Nc1ncnc2c1ncn2[C@@H]1O[C@H](CO)[C@@H](O)[C@@H]1O; 20
O=c1[nH]c(=O)n([C@H]2C[C@H](O)[C@@H](CO)O2)cc1I; 1
N#CCOc1cn([C@H]2C[C@H](O)[C@@H](CO)O2)c(=O)[nH]c1=O; 400

Read the next record carefully.
Supply reported IC50 belonging to this compound: C#CCOc1cn([C@H]2C[C@H](O)[C@@H](CO)O2)c(=O)[nH]c1=O
200

###

System: PRK
Test: Concentration required to inhibit incorporation of [1,'2'-3H]dUrd into DNA of primary rabbit kidney (PRK) cells by 50%
Assay type: functional, cell-based
Settings: Oryctolagus cuniculus
experimentalReadout: IC50 (µg/mL)
Numbers only, in µg/mL.

Nc1ncnc2c1ncn2[C@@H]1O[C@H](CO)[C@@H](O)[C@@H]1O; 10

I need IC50 for every entry listed below, if you could help.
1. N#Cc1cn([C@H]2C[C@H](O)[C@@H](CO)O2)c(=O)[nH]c1=O
2. O=c1[nH]c(=O)n([C@H]2C[C@H](O)[C@@H](CO)O2)cc1I

1. 8
2. 0.3

Supply reported IC50 belonging to this compound: C#CCOc1cn([C@H]2C[C@H](O)[C@@H](CO)O2)c(=O)[nH]c1=O
100

Source of measurements: ChEMBL document CHEMBL1121880
